# System: SF-539
# PROCEDURE_TEXT: NCI tumour cell line growth inhibition, 48 h
Activity calls are given as the source filed them. No stated cut-off is given here; in the data, active = GI50 up to about 1.1 µM and inactive = higher.

{"COMPOUND": "N#Cc1c(NN)nc(NN)c(C#N)c1-c1ccccc1", "GI50": "> 100 µM (inactive)"}
{"COMPOUND": "[O-][n+]1onc2c3nn(-c4ccccc4)nc3ccc21", "GI50": "> 100 µM (inactive)"}
{"COMPOUND": "COc1ccc(/C(Cl)=C(\\C=O)c2cc(OC)c(OC)c(OC)c2)cc1OC", "GI50": "26.2 µM (inactive)"}
{"COMPOUND": "CCCCN(CCCC)CCC(O)c1cc(-c2ccc(C(F)(F)F)cc2)nc(-c2ccc(C(F)(F)F)cc2)c1 (stereo unspecified)", "GI50": "> 100 µM (inactive)"}
{"COMPOUND": "CC(=O)O[C@H]1CCC2[C@@H]3CCC4Nc5oncc5C[C@]4(C)C3CC[C@@]21C (stereo partly specified)", "GI50": "3.94 µM (inactive)"}
{"COMPOUND": "C=C1c2nc3ccccc3n2C=C(c2ccc(C)cc2)N1c1ccc(C)cc1", "GI50": "> 48.1 µM (inactive)"}
{"COMPOUND": "CC(C)N(C(=O)C12C3C4C5(C#N)C3C1(I)C5C42I)C(C)C (stereo unspecified)", "GI50": "> 60.8 µM (inactive)"}
{"COMPOUND": "CC1(SCC(N)C(=O)O)CC(=O)NC1=O (stereo unspecified)", "GI50": "> 100 µM (inactive)"}
{"COMPOUND": "CSc1nc2ccccc2c(=O)n1-c1cccc(C)c1", "GI50": "78.9 µM (inactive)"}
{"COMPOUND": "O=c1c2cc([N+](=O)[O-])ccc2n2n1Cc1ccccc1C2", "GI50": "> 100 µM (inactive)"}
{"COMPOUND": "FC1OC2OC1C(OCc1ccccc1)C(OCc1ccccc1)C2OCc1ccccc1 (stereo unspecified)", "GI50": "> 100 µM (inactive)"}
{"COMPOUND": "CC(C)CCn1c(=O)c2c(=O)[nH][nH]c2c2ccccc21", "GI50": "> 100 µM (inactive)"}
{"COMPOUND": "Clc1ccc(CCNC2(c3cc4ccccc4s3)CCCCC2)cc1Cl", "GI50": "16.9 µM (inactive)"}
{"COMPOUND": "O=C1C[C@@H]2[C@@H](CCC23CC3)N1", "GI50": "> 100 µM (inactive)"}
{"COMPOUND": "CCCCn1c2ccccc2c2ccc3c(c21)C(=O)C=CC3=O", "GI50": "> 100 µM (inactive)"}
{"COMPOUND": "CC(=O)OCC1(C)C(OC(C)=O)CCC2(C)C(CC(OC(C)=O)C3=CCOC3=O)C(O)(CO)CCC12 (stereo unspecified)", "GI50": "> 100 µM (inactive)"}

###

# Tested on: UACC-257
# PROCEDURE_TEXT: NCI tumour cell line growth inhibition, 48 h
Active and inactive are the calls of the source. Rule as the data show it: active = GI50 up to about 1.1 µM and inactive = higher.
Outcome codes: y = active, n = inactive

{"MOLECULE": "O=C1Cc2c(-c3ccccc3)cc(-c3ccc(Cl)cc3)nc2-c2ccccc2N1", "ANSWER_LABEL": "n"}
{"MOLECULE": "C1CNCCNCCNCCN1", "ANSWER_LABEL": "n"}
{"MOLECULE": "Cc1ccc2c(c1)nc1n2C(c2c(F)cccc2F)SC1 (stereo unspecified)", "ANSWER_LABEL": "n"}
{"MOLECULE": "NS(=O)(=O)c1ccc(NC(=O)Nc2ccccc2F)cc1", "ANSWER_LABEL": "n"}
{"MOLECULE": "Cc1cc(C)nc(NS(=O)(=O)c2ccc(NNc3c4ccccc4nc4c(C(=O)Nc5ccc(S(N)(=O)=O)cc5)cccc34)cc2)n1", "ANSWER_LABEL": "n"}
{"MOLECULE": "c1ccc(Nc2nn3c(CCCCCCCCc4nnc5sc(Nc6ccccc6)nn45)nnc3s2)cc1", "ANSWER_LABEL": "n"}
{"MOLECULE": "O=S(=O)(O)CS(=O)(=O)OCCCl", "ANSWER_LABEL": "n"}
{"MOLECULE": "CCOC(=O)c1nc2ccc(C(F)(F)F)cc2nc1Nc1ccc(OC)cc1", "ANSWER_LABEL": "n"}
{"MOLECULE": "O=C(Nc1cccc([N+](=O)[O-])c1)C(=O)C(C(=O)c1ccccc1-c1ccccc1)C1OC(=O)c2ccccc21 (stereo unspecified)", "ANSWER_LABEL": "n"}
{"MOLECULE": "C=C1c2nc3ccccc3n2C=C(c2ccc(C)cc2)N1c1ccc(C)cc1", "ANSWER_LABEL": "n"}
{"MOLECULE": "CSc1nc2ccccc2c(=O)n1-c1cccc(C)c1", "ANSWER_LABEL": "n"}
{"MOLECULE": "c1ccc2[nH]c3nc4ccccc4c-3cc2c1", "ANSWER_LABEL": "y"}
{"MOLECULE": "Brc1ccc(/N=C/C=C(\\Nc2ccc(Br)cc2)C23CC4CC(CC(C4)C2)C3)cc1", "ANSWER_LABEL": "n"}
{"MOLECULE": "CC(=O)c1sc(-c2nc(C)c(C(=O)/C=C\\c3ccc(/C=C\\C(=O)c4sc(-c5nc(C)c(C(C)=O)s5)nc4C)cc3)s2)nc1C", "ANSWER_LABEL": "n"}
{"MOLECULE": "CCSCN(C)c1nc(N(C)C)nc(N(C)C)n1", "ANSWER_LABEL": "n"}
{"MOLECULE": "CCc1cccc(C)c1NC(=O)CCc1nnc2s/c(=C\\c3cccc4ccccc34)c(=O)n12", "ANSWER_LABEL": "n"}
{"MOLECULE": "COc1cc2cc(C(=O)N3CC(CCl)c4ccc([N+](C)(C)Cc5ccc([N+](=O)[O-])cc5)cc43)[nH]c2c(OC)c1OC (stereo unspecified)", "ANSWER_LABEL": "n"}
{"MOLECULE": "CN(C)/C=N/n1c2ccccc2c2ccccc21", "ANSWER_LABEL": "n"}
{"MOLECULE": "CC(=O)CC(=O)CCCC(=O)Nc1ccc(Cl)cc1C", "ANSWER_LABEL": "n"}
{"MOLECULE": "Clc1ccccc1/C=c1\\nc(-c2ccccc2)n2c1nc1ccccc12", "ANSWER_LABEL": "n"}
{"MOLECULE": "CN(C)c1ccc(C(Cc2ccccc2)C2NC(=S)NC2=O)cc1 (stereo unspecified)", "ANSWER_LABEL": "n"}
{"MOLECULE": "C=C(C)C(=O)OC1C[C@H](COC(C)=O)C2CC=C(C)C2C2OC(=O)C(=C)[C@H]12 (stereo partly specified)", "ANSWER_LABEL": "n"}
{"MOLECULE": "O=C1CS(=O)(=O)C(c2cccc(Oc3ccccc3)c2)N1C1CC1 (stereo unspecified)", "ANSWER_LABEL": "n"}
{"MOLECULE": "O=C1OC(C2=CC(=O)c3ccccc3C2=O)C(Cl)=C1Cl (stereo unspecified)", "ANSWER_LABEL": "n"}
{"MOLECULE": "Oc1nc2c(c(-c3ccccc3Cl)n1)COC/C2=C\\c1ccccc1Cl", "ANSWER_LABEL": "n"}
{"MOLECULE": "O=C(O)CNC(=O)c1ccc(-c2ccccc2)cc1", "ANSWER_LABEL": "n"}

###

# Test system: MDA-N
# PROCEDURE_TEXT: NCI tumour cell line growth inhibition, 48 h
Calls of active or inactive are those of the source. No stated cut-off is given here; in the data, active = GI50 up to about 1.1 µM and inactive = higher.
Some compounds, each annotated with its measured GI50.

{"COMPOUND": "Cc1cc(NCCCCCCCCCC[n+]2c(C)cc(N)c3ccccc32)c2ccccc2n1", "ASSAY_TARGET": "MDA-N", "GI50": "1.04 µM (active)"}
{"COMPOUND": "COc1ccccc1/C=C/c1c(N)ncnc1Nc1cccc(Cl)c1", "ASSAY_TARGET": "MDA-N", "GI50": "25 µM (inactive)"}
{"COMPOUND": "Nc1cccc2cc(Cl)cnc12", "ASSAY_TARGET": "MDA-N", "GI50": "> 100 µM (inactive)"}
{"COMPOUND": "Oc1c(Br)cc(/C=C/c2cccc(/C=C/c3cc(Br)c(O)c(Br)c3)n2)cc1Br", "ASSAY_TARGET": "MDA-N", "GI50": "18.8 µM (inactive)"}
{"COMPOUND": "CNc1ccc(C(=O)CC(O)CCC(C)C2OC(=O)CC(O)CC(=O)CC(O)CC(O)CC(O)CC(O)CC3(O)CC(O)C(C(=O)NCCN(C)C)C(CC(OC4OC(C)C(O)C(NC(=O)CN5CCN(C)CC5)C4O)\\C=C/C=C\\C=C/C=C/C=C/C=C\\C=C/C2C)O3)cc1 (stereo unspecified)", "ASSAY_TARGET": "MDA-N", "GI50": "6.46 µM (inactive)"}
{"COMPOUND": "C=C(CC(NC(=O)c1ccc(C(CC)Cc2cnc3nc(N)nc(N)c3n2)cc1)C(=O)O)C(=O)O (stereo unspecified)", "ASSAY_TARGET": "MDA-N", "GI50": "0.0462 µM (active)"}

These entries and their values trace back to ChEMBL document CHEMBL1201862.
